system: rodent lifetime carcinogenesis bioassay, tumor incidence TD50; experiment: carcinogenic potency in animals, long-term in vivo studies, CPDB compilation (AID 1745844); settings: mouse; strain B6C3F1; females; in feed; site: liver; lesion: hepatocellular adenoma + hepatocellular carcinoma + neoplastic nodule; dosed 80 weeks; study length 105 weeks
experimental endpoint: TD50 (mg/kg/day)
All answers are understood in mg/kg/day, so give the number only.

Input: Value lookup for TD50; key = Nc1ccc(N=Nc2ccccc2)c(N)n1
Output: 71.1

* * *

tested on: rodent lifetime carcinogenesis bioassay, tumor incidence TD50; experiment: carcinogenic potency in animals, long-term in vivo studies, CPDB compilation (AID 1745844); settings: mouse; strain B6C3F1; males; by gavage; site: lung; lesion: carcinoma; dosed 104 weeks; study length 104 weeks
Calls of active or inactive are those of the source. The rule behind the calls is not given here.
experimental endpoint: TD50

Input: Looking for the measured TD50 of CCOC(=O)[C@H](CCc1ccccc1)N[C@@H](C)C(=O)N1Cc2ccccc2C[C@H]1C(=O)O , can you help?
Output: 2810 mg/kg/day (inactive)

* * *

tested on: rodent lifetime carcinogenesis bioassay, tumor incidence TD50; experiment: carcinogenic potency in animals, long-term in vivo studies, CPDB compilation (AID 1745844); details: mouse; strain B6C3F1; males; inhaled; site: liver; lesion: hepatocellular adenoma; dosed 40 weeks; study length 105 weeks
experimental endpoint: TD50

Input: I'd like to know its TD50. The molecule in question is C=CC(=C)C
Output: 1070 mg/kg/day

* * *

system: rodent lifetime carcinogenesis bioassay, tumor incidence TD50; assay: carcinogenic potency in animals, long-term in vivo studies, CPDB compilation (AID 1745844); details: rat; strain Fischer 344; males; in feed; site: liver; lesion: hepatocellular adenoma + hepatoblastoma + hepatocellular carcinoma; dosed 104 weeks; study length 105 weeks
experimental endpoint: TD50 (mg/kg/day)
Answer with a number only, understood to be in mg/kg/day.

Input: Any idea what TD50 came out for OCC(CO)(CBr)CBr on rodent lifetime carcinogenesis bioassay, tumor incidence TD50?
Output: 1840

* * *

tested on: rodent lifetime carcinogenesis bioassay, tumor incidence TD50; assay: carcinogenic potency in animals, long-term in vivo studies, CPDB compilation (AID 1745844); details: monkey; strain Cynomolgus [Macaca fascicularis]; both sexes; in feed; site: several sites, pooled by Berkeley; lesion: several types, pooled by Berkeley; dosed 258 weeks; study length 1208 weeks
experimental endpoint: TD50

Input: Would you kindly share the measured TD50 for CCOC(N)=O ?
Output: 16.4 mg/kg/day

* * *

tested on: rodent lifetime carcinogenesis bioassay, tumor incidence TD50; test: carcinogenic potency in animals, long-term in vivo studies, CPDB compilation (AID 1745844); settings: mouse; strain B6C3F1; females; by gavage; site: pituitary gland; lesion: adenoma; dosed 104 weeks; study length 104 weeks
Calls of active or inactive are those of the source. How the calls were made is not given here.
experimental endpoint: TD50

Input: Give rodent lifetime carcinogenesis bioassay, tumor incidence TD50 TD50 for CCOC(=O)[C@H](CCc1ccccc1)N[C@@H](C)C(=O)N1Cc2ccccc2C[C@H]1C(=O)O
Output: 128 mg/kg/day (inactive)

* * *

system: rodent lifetime carcinogenesis bioassay, tumor incidence TD50; assay: carcinogenic potency in animals, long-term in vivo studies, CPDB compilation (AID 1745844); conditions: mouse; strain Han:NMRI; females; inhaled; site: all sites; lesion: malignant lymphoma; dosed 78 weeks; study length 130 weeks
experimental endpoint: TD50 (mg/kg/day)
Express your answer in mg/kg/day, writing the number without its unit.

Input: Sample ClC=C(Cl)Cl — what was its TD50?
Output: 846
